From: PubChem BioAssay (NCI)

# Tested on: NCI-H522 lung
# assay: NCI tumour cell line growth inhibition, 48 h; in the data active means GI50 below about 0.43 µM; inactive means the rest
// allowed return values: true (1) for active, false (0) for inactive

N#CSc1c[nH]c2cccc(/C=C/C(=O)/C=C(/C=C/c3cccc4[nH]cc(SC#N)c34)OB(F)F)c12 :: true (1)

Exercise: Please let me know the test result on file for CC[C@@]1(O)C(=O)OCc2c1cc1n(c2=O)Cc2c-1nc1cc3c(cc1c2CCl)OCO3 .
Solution: true (1)

Exercise: How was CC[C@]1(O)C[C@@H]2CN(CCc3c([nH]c4ccccc34)[C@@](C(=O)OC)(c3cc4c(cc3OC)N(C)[C@H]3[C@@](O)(C(=O)OC)[C@H](OC(C)=O)[C@]5(CC)C=CCN6CC[C@]43[C@@H]65)C2)C1 classified in this test?
Solution: true (1)

Exercise: // return assay outcome for CCC[CH2][Sn]1([CH2]CCC)[O]Cc2nc(C)ccc2[O]1
Solution: false (0)

###

# Tested on: COLO 205 colon
# assay: NCI tumour cell line growth inhibition, 48 h; in the data active = GI50 below about 0.43 µM; inactive = the rest
Select the correct class. Options are active, inactive and nothing else.

Before answering, review these 3 worked examples.
C=CC(=O)N1CC2(CCN(c3nc(OC4CCN(CCCOC)CC4)nc4c(OCC(F)(F)F)c(-c5c(C)ccc6[nH]ncc56)c(C5CC5)cc34)CC2)C1 :: inactive
CC1(C)OC2[C@@H](CNC(=O)NC(=O)NC(=O)CI)O[C@@H](n3cnc4c(NC(=O)Nc5ccccc5)ncnc43)[C@H]2O1 (some centres undefined) :: inactive
N#Cc1ccc(NC(=O)Nc2ccc(Oc3ccc(NC(=O)Nc4ccc(C#N)cc4)cc3)cc2)cc1 :: inactive

Continue with the next molecule.
Exercise: What call does the record list for CC(=O)OC[C@]1(C)C=C2C(=O)[C@](C)(O)C3(CC3)C(C)=C2[C@H]1O ?
Solution: active

###

# Tested on: MDA-MB-231 breast
# assay: NCI tumour cell line growth inhibition, 48 h
Reported GI50 values for the following compounds.

// O=C(N/N=C/c1ccccc1O)c1ccccc1Nc1ccnc(C(F)(F)F)c1 : GI50 value = 0.796 µM

O=C(/C(Br)=C/c1ccccc1)c1ccccc1 yielded GI50 of 2.44 µM

Please fill in: GI50 reported for O=C1c2cc(Cl)ccc2S(=O)(=O)c2c(NCCCNCCO)nc3ccccc3c21 = 1.49 µM

Input C=CC(=O)N1CC2(CCN(c3nc(OC4CCN(CCCOC)CC4)nc4c(OCC(F)(F)F)c(-c5c(C)ccc6[nH]ncc56)c(C5CC5)cc34)CC2)C1 . Output GI50: 1.98 µM

Kindly note the recorded GI50 for N#Cc1ccc(NC(=O)Nc2ccc(Oc3ccc(NC(=O)Nc4ccc(C#N)cc4)cc3)cc2)cc1 , which is 12.4 µM

Quick note, GI50 for Nc1nc(Cl)c2ncn(Cc3ccc(C45CC6CC(CC(C6)C4)C5)c(O)c3)c2n1 landed at 1.85 µM

Input COc1ccc(/C(COc2c(-c3ccccc3)oc3ccccc3c2=O)=N\O)cc1 . Output GI50: 18.3 µM

Nc1cc(N)c2nc(-c3ccccc3)c(Nc3ccc(Cl)c(Cl)c3)nc2c1 has a reported GI50 of 5.72 µM

Field GI50 (entry N#Cc1ccc(O)c(C2=NCC(c3cccc(Oc4ccccc4)c3)O2)c1 (stereo unspecified) ) reads 1.28 µM

The reported GI50 of the compound COC(=O)[C@]12CC[C@@H](C)[C@H](C)[C@@H]1C1=CC[C@@H]3[C@@]4(C)C/C(=N\O)[C@H](O)[C@@]5(C)COC(=C45)C[C@@]3(C)[C@]1(C)CC2 was 3.84 µM

GI50 reading for CC(C)(C)OC(=O)N1CCc2c(sc3ncnc(N/N=C/c4cccc5ccccc45)c23)C1 : 5.93 µM
